Data origin: patent US7285664B2

System: HT-22 cells
Assay: Effects on the oxidative stress induced by glutamate on cells in culture (HT-22), MTT viability
Assay type: cell-based
Details: Mus musculus; protection of HT-22 cells from glutamate (5 mM); viability after 24 hours by MTT
Protocol: Study of the Effects on the Oxidative Stress Induced by Glutamate on Cells in Culture (HT-22): The inhibitory activity of the products of the invention is determined by measuring their ability to protect the cells of a mouse hippocampal cell line (HT-22) from oxidative stress caused by glutamate. The biosynthesis of glutathione, an essential element in cell detoxification of free radicals, requires the active transport of cystine to inside the cell. […]
Structures can show the parent of a compound that is named as a salt.
# Lookup of reported EC50 keyed by entry

[
  {
    "compound": "NC(=Nc1cccc(CN2CCN(C(=O)CC3CCSS3)CC2)c1)c1cccs1 (stereo not drawn) [Example 4]",
    "EC50": "≤ 4 µM"
  },
  {
    "compound": "NC(=Nc1ccc(N2CCN(C(=O)CCCCC3CCSS3)CC2)cc1)c1cccs1 (stereo not drawn) [Example 1, hydrochloride]",
    "EC50": "≤ 4 µM"
  },
  {
    "compound": "NC(=Nc1ccc(N2CCN(C(=O)CC3CCSS3)CC2)cc1)c1cccs1 (stereo not drawn) [Example 2]",
    "EC50": "≤ 4 µM"
  },
  {
    "compound": "COc1cc(N=C(N)c2cccs2)ccc1N1CCN(C(=O)NCCCCC2CCSS2)CC1 (stereo not drawn) [Example 8]",
    "EC50": "≤ 4 µM"
  },
  {
    "compound": "COc1cc(N2CCN(C(=O)NCCCCC3CCSS3)CC2)ccc1N=C(N)c1cccs1 (stereo not drawn) [Example 9]",
    "EC50": "≤ 4 µM"
  }
]

query: Can you share its EC50? I mean this compound: N#Cc1cc(N=C(N)c2cccs2)ccc1N1CCN(C(=O)NCCCCC2CCSS2)CC1 (stereo not drawn) [Example 10]
result: ≤ 4 µM

====

tested on: HT-22 cells; assay: Effects on the oxidative stress induced by glutamate on cells in culture (HT-22), MTT viability; assay type: cell-based; conditions: Mus musculus; protection of HT-22 cells from glutamate (5 mM); viability after 24 hours by MTT
# Lookup of reported EC50 keyed by entry

// known answers, use as guide
[
  {
    "compound": "NC(=Nc1ccc(N2CCN(C(=O)NCCCCC3CCSS3)CC2)cc1)c1cccs1 (stereo not drawn) [Example 5]",
    "readout-value": "≤ 4 µM"
  },
  {
    "compound": "NC(=Nc1cccc(CN2CCN(C(=O)NCCCCC3CCSS3)CC2)c1)c1cccs1 (stereo not drawn) [Example 11]",
    "readout-value": "≤ 4 µM"
  }
]

Now turn to the next compound.
query: Can you share its EC50? I mean this compound: Cc1cc(N2CCN(C(=O)NCCCCC3CCSS3)CC2)ccc1N=C(N)c1cccs1 (stereo not drawn) [Example 7]
result: ≤ 4 µM
